Tested on: P. aeruginosa PAO1
Conditions: MH broth pH 7.4, 16–20 h, 37 °C
Parameter: MIC P. aeruginosa PAO1

Solved entries (count: 2):
Compound: CC(C)C[C@H](NC(=O)[C@H](CCCCN)NC(=O)[C@H](CC(C)C)NC(=O)[C@H](CC(C)C)NC(=O)[C@@H](CCCCN)NC(=O)[C@H](N)CCCCN)C(=O)N[C@@H](CC(C)C)C(=O)N[C@@H](CCCCN)C(=O)N[C@@H](CC(C)C)C(=O)N[C@H](CC(C)C)C(=O)N[C@H](CC(C)C)C(N)=O [HP18, kkLLKLLKLll]
MIC P. aeruginosa PAO1: 8 µg/mL
--
Compound: CC(C)C[C@H](NC(=O)[C@H](CCCCN)NC(=O)[C@H](N)CCCCN)C(=O)N[C@@H](CC(C)C)C(=O)N[C@H](CCCCN)C(=O)N[C@H](CC(C)C)C(=O)N[C@H](CC(C)C)C(=O)N[C@@H](CCCCN)C(=O)N[C@@H](CC(C)C)C(=O)N[C@@H](CC(C)C)C(=O)N[C@H](CC(C)C)C(N)=O [HP28, kKLLkllKLLl]
MIC P. aeruginosa PAO1: 4 µg/mL

stdin: Provide one value: measured MIC P. aeruginosa PAO1 of CC(C)C[C@H](NC(=O)[C@H](CC(C)C)NC(=O)[C@H](CC(C)C)NC(=O)[C@H](CCCCN)NC(=O)[C@H](CC(C)C)NC(=O)[C@H](CC(C)C)NC(=O)[C@@H](CCCCN)NC(=O)[C@H](CC(C)C)NC(=O)[C@H](CC(C)C)NC(=O)[C@@H](CCCCN)NC(=O)[C@H](N)CCCCN)C(N)=O [HP10, kkLLkLLKLLL]
stdout: 4 µg/mL
